All values here come from patent US20240174727A1.

Target: T1, rat NPRA (rat, UniProt P18910 29-1057)
T1 sequence (looked up): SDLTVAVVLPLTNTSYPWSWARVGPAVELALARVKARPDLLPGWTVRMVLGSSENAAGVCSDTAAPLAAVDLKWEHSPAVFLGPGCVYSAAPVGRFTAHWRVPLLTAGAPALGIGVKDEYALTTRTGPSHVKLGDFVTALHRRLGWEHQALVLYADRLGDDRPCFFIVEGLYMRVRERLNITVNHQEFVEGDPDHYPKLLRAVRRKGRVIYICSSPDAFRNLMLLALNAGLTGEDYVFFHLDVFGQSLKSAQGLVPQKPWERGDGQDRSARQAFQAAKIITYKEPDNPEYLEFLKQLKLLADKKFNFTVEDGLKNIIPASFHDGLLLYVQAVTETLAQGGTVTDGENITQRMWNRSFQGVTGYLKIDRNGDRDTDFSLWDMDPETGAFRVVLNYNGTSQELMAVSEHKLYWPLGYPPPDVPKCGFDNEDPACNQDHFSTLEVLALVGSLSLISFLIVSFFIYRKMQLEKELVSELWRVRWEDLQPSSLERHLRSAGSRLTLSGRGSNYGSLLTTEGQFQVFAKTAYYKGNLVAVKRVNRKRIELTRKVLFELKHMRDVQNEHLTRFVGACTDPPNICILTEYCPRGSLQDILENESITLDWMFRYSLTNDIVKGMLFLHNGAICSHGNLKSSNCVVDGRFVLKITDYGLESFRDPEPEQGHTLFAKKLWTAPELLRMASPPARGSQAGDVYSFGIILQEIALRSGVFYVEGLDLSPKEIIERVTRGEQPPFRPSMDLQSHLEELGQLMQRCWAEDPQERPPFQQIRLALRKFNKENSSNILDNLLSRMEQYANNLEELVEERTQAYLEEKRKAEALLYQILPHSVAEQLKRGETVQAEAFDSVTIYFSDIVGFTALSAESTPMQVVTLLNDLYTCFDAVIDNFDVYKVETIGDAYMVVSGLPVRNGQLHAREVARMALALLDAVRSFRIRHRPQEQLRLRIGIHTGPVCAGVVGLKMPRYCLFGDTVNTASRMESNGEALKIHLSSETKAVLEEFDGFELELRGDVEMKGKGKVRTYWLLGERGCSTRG
Assay: cell-based or functional assay
Numbered stars: 1 amine (or outer) side, 2 acyl side, 3 side chain; on linkers, the order of the positions; unused ones are H or OH. Bridge positions count the residues as written; N and C are the ends. Square brackets hold non-standard residues; d marks the D form. * marks the point of attachment. thioacetal = thioacetal linkage between two cysteines (intrachain bond at the bracketed Cys); C20 diacid = O=C(O)CCCCCCCCCCCCCCCCCCC(=O)*; γGlu = O=C(O)[C@H](CCC(=O)[*:2])N[*:1]; Dap = NC[C@H](N)C(=O)O; βAla = NCCC(=O)O
Class Y: cGMP Assay (EC50, pM) w/Casein, rNPRA at least 20000 pM. Class N: cGMP Assay (EC50, pM) w/Casein, rNPRA below 20000 pM.

Observe how each entry below is paired with its result.
q: Check the entry SXRRSSCFGKRIDRIGHQSGLGCPSFRHGGKSSGAPPPS (N-terminus acylated with HOOC-(CH2)18-CO-(γGlu)-; PEG24 after EKEKEKG; 4Pal; thioacetal linkage between the two bracketed Cys; C-terminal amide) [HOOC-(CH2)18-CO-(γGlu)-EKEKEKG-PEG24-S-4Pal-RRSS[CFGKRIDRIGHQSGLGC]PSFRHGGKSSGAPPPS-NH2] : does cGMP Assay (EC50, pM) w/Casein, rNPRA equal or exceed 20000 pM?
a: N

q: Reported cGMP Assay (EC50, pM) w/Casein, rNPRA at or above 20000 pM? EKPRSSCFGKRIDRIGHYSGLGCPSFRHSGSPSSGAPPPSG (N-terminus acylated with HOOC-(CH2)18-CO-(γGlu)-; PEG24 after EKEKEKG; thioacetal linkage between the two bracketed Cys; C-terminal amide) [HOOC-(CH2)18-CO-(γGlu)-EKEKEKG-PEG24-EKPRSS[CFGKRIDRIGHYSGLGC]PSFRHSGSPSSGAPPPSG-NH2]
a: N

q: Please indicate if the recorded cGMP Assay (EC50, pM) w/Casein, rNPRA for XEKEKEKGEKPRSSCFGKRIDRIGXQSGLGCPSFRHGSPSSGAPPPS (N-terminus acylated with HOOC-(CH2)18-CO-(γGlu)-; Orn; thioacetal linkage between the two bracketed Cys; C-terminal amide) [HOOC-(CH2)18-CO-(γGlu)-EKEKEKGEKPRSS[CFGKRIDRIG-Orn-QSGLGC]PSFRHGSPSSGAPPPS-NH2] meets or exceeds 20000 pM.
a: Y

q: Threshold query (cGMP Assay (EC50, pM) w/Casein, rNPRA >= 20000 pM) on EKPRSSCFGKRIDRIGHYSGLGCPSFRHGSPSSGAPPPS (N-terminus acylated with HOOC-(CH2)18-CO-(γGlu)-; PEG24 after EKEKEKG; thioacetal linkage between the two bracketed Cys; C-terminal amide) [HOOC-(CH2)18-CO-(γGlu)-EKEKEKG-PEG24-EKPRSS[CFGKRIDRIGHYSGLGC]PSFRHGSPSSGAPPPS-NH2]
a: N

q: Kindly determine if cGMP Assay (EC50, pM) w/Casein, rNPRA recorded for {C20 diacid-γGlu}-EKEKEKGEKPRSSCFGG[Dap]IDRIGHQSGLGCPSFRHGSPSSGAPPPS-NH2 (bridge 14-30 via thioacetal) [HOOC-(CH2)18-CO-(γGlu)-EKEKEKGEKPRSS[CFGG-Dap-IDRIGHQSGLGC]PSFRHGSPSSGAPPPS-NH2] is above or exactly 20000 pM.
a: Y

Others:
q: Assess whether reported cGMP Assay (EC50, pM) w/Casein, rNPRA for EKPRSSCFGKRIDRIGHQSGLGCPSFRHSGSPSSGAPPPSG (N-terminus acylated with HOOC-(CH2)18-CO-(γGlu)-; PEG24 after EKEKEKG; thioacetal linkage between the two bracketed Cys; C-terminal amide) [HOOC-(CH2)18-CO-(γGlu)-EKEKEKG-PEG24-EKPRSS[CFGKRIDRIGHQSGLGC]PSFRHSGSPSSGAPPPSG-NH2] sits at 20000 pM or higher.
a: N

q: Entry {C20 diacid-γGlu}-EKEKEKGEKPRSSCFGKRIDRIGHQSGLGCPSFRHGSPSSGAPPPS-NH2 (bridge 14-30 via thioacetal) [HOOC-(CH2)18-CO-(γGlu)-EKEKEKGEKPRSS[CFGKRIDRIGHQSGLGC]PSFRHGSPSSGAPPPS-NH2] : is its cGMP Assay (EC50, pM) w/Casein, rNPRA no less than 20000 pM?
a: N

q: // inclusive: cGMP Assay (EC50, pM) w/Casein, rNPRA at least 20000 pM? input: {C20 diacid}-[γGlu]EKEKEKGEK[βAla]RSSCFGKRIDRIGHYSGLGCPSFRHGSPSSGAPPPS-NH2 (bridge 15-31 via thioacetal)
a: N
